// provenance: ChEMBL document CHEMBL6153155

experiment: Metabolic stability in female C57BL/6J mouse liver microsomes assessed as intrinsic clearance measured per mg of protein at 0.5 uM measured upto 45 mins in presence of NADPH regenerating system by HPLC-MS/MS analysis; assay type: ADME, Microsome; conditions: read-out: CLH

[
  {
    "mol": "Cc1nc(-c2snc(C)c2NC(=O)O[C@H](C)c2ccccc2Cl)ccc1NC(=O)[C@H]1CCCC[C@@H]1C(=O)O",
    "relation_sign": "=",
    "microsomal CLint at 0.5 µM / µL/min/mg": 7.6
  },
  {
    "mol": "Cc1noc(-c2ccc(NC(=O)[C@H]3CCCC[C@@H]3C(=O)O)cn2)c1NC(=O)O[C@H](C)c1ccccc1Cl",
    "relation_sign": "=",
    "microsomal CLint at 0.5 µM / µL/min/mg": 4
  },
  {
    "mol": "Cc1nc(-c2onc(C)c2NC(=O)O[C@H](C)c2ccccn2)ccc1NC(=O)[C@H]1CCCC[C@@H]1C(=O)O",
    "relation_sign": "=",
    "microsomal CLint at 0.5 µM / µL/min/mg": 6
  },
  {
    "mol": "CCC[C@@H](C)OC(=O)Nc1c(C)noc1-c1ccc(NC(=O)[C@H]2CCCC[C@@H]2C(=O)O)c(C)n1",
    "relation_sign": "=",
    "microsomal CLint at 0.5 µM / µL/min/mg": 3.7
  },
  {
    "mol": "Cc1nc(-c2nnn(C)c2NC(=O)O[C@H](C)c2ccccc2Cl)ccc1NC(=O)[C@H]1CCCC[C@@H]1C(=O)O",
    "relation_sign": "=",
    "microsomal CLint at 0.5 µM / µL/min/mg": 2.7
  },
  {
    "mol": "Cc1nc(-c2cnn(C)c2NC(=O)O[C@H](C)c2ccccc2Cl)ccc1NC(=O)[C@H]1CCCC[C@@H]1C(=O)O",
    "relation_sign": "<",
    "microsomal CLint at 0.5 µM / µL/min/mg": 2
  }
]

----------
experiment: Oral bioavailability in female C57BL/6J mouse at 2 mg/kg, iv measured after 24 hrs by UPLC-MS/MS analysis; assay type: ADME, organism-based; settings: in vivo
Decide by bioavailability: equal to or exceeding 70% means true (1), less means false (0).

[
  {
    "mol": "Cc1nc(-c2nnn(C)c2NC(=O)O[C@H](C)c2ccccc2Cl)ccc1NC(=O)[C@H]1CCCC[C@@H]1C(=O)O",
    "cat": "false (0)"
  },
  {
    "mol": "Cc1nc(-c2cnn(C)c2NC(=O)O[C@H](C)c2ccccc2Cl)ccc1NC(=O)[C@H]1CCCC[C@@H]1C(=O)O",
    "cat": "false (0)"
  },
  {
    "mol": "Cc1nc(-c2onc(C)c2Nc2cncc(OC(C)C)n2)ccc1NC(=O)[C@H]1CCCC[C@@H]1C(=O)O",
    "cat": "false (0)"
  },
  {
    "mol": "Cc1nc(-c2onc(C)c2NC(=O)O[C@H](C)c2ccccc2)ccc1NC(=O)[C@H]1CCCC[C@@H]1C(=O)O",
    "cat": "true (1)"
  },
  {
    "mol": "Cc1nc(-c2onc(C)c2NC(=O)O[C@H](C)c2ccccc2Cl)ccc1NC(=O)[C@H]1CCCC[C@@H]1C(=O)O",
    "cat": "true (1)"
  },
  {
    "mol": "Cc1noc(-c2ccc(NC(=O)[C@H]3CCCC[C@@H]3C(=O)O)cn2)c1NC(=O)O[C@H](C)c1ccccc1Cl",
    "cat": "false (0)"
  }
]

----------
biological target: Lysophosphatidic acid receptor 4 (Homo sapiens); assay: Antagonist activity at human LPA4 expressed in CHO cells in presence of IBMX pretreated for 30 mins followed by LPA addition and measured after 1 hrs by cAMP accumulation assay
Sequence (Q99677 whole entry): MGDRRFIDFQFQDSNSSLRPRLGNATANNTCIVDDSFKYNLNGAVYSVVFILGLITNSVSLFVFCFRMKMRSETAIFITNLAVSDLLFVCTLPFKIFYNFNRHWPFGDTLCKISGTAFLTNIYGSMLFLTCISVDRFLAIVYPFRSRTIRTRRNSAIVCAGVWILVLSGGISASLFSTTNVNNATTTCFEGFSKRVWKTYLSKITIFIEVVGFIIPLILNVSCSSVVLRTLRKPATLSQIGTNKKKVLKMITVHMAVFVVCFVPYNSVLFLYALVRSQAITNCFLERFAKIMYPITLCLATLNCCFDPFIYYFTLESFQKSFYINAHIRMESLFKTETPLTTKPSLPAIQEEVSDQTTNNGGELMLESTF
pIC50: −log10 of the molar value.

[
  {
    "mol": "Cc1nc(-c2onc(C)c2NC(=O)O[C@H](C)c2ccccc2Cl)ccc1NC(=O)[C@H]1CCCC[C@@H]1C(=O)O",
    "pIC50": 4.90
  }
]

----------
The reader will find reported microsomal CLint at 0.5 µM values listed item by item below.
assay: Metabolic stability in female C57BL/6J mouse liver microsomes assessed as intrinsic clearance measured per mg of protein at 0.5 uM measured upto 45 mins in presence of NADPH regenerating system by HPLC-MS/MS analysis; type: ADME, Microsome; settings: read-out: CLH

[
  {
    "mol": "Cc1nc(-c2onc(C)c2CNC(=O)O[C@H](C)c2ccccc2Cl)ccc1NC(=O)[C@H]1CCCC[C@@H]1C(=O)O",
    "value_unit": "µL/min/mg",
    "microsomal CLint at 0.5 µM": 11.8
  },
  {
    "mol": "Cc1nc(-c2onc(C)c2NC(=O)O[C@H](C)c2ccccc2Cl)ccc1NC(=O)[C@H]1CCCC[C@@H]1C(=O)O",
    "value_unit": "µL/min/mg",
    "microsomal CLint at 0.5 µM": 4
  },
  {
    "mol": "Cc1nc(-c2onc(C)c2NC(=O)O[C@H](C)c2ccccc2)ccc1NC(=O)[C@H]1CCCC[C@@H]1C(=O)O",
    "value_unit": "µL/min/mg",
    "microsomal CLint at 0.5 µM": 3.5
  },
  {
    "mol": "Cc1cc(NC(=O)[C@H]2CCCC[C@@H]2C(=O)O)c(C)nc1-c1onc(C)c1NC(=O)O[C@H](C)c1ccccc1Cl",
    "value_unit": "µL/min/mg",
    "microsomal CLint at 0.5 µM": 4
  },
  {
    "mol": "Cc1noc(-c2ccc(NC(=O)[C@H]3CCCC[C@@H]3C(=O)O)cc2)c1NC(=O)O[C@H](C)c1ccccc1Cl",
    "value_unit": "µL/min/mg",
    "microsomal CLint at 0.5 µM": 19.5
  },
  {
    "mol": "Cc1noc(-c2ccc(NC(=O)[C@H]3CCCC[C@@H]3C(=O)O)c(F)n2)c1NC(=O)O[C@H](C)c1ccccc1Cl",
    "value_unit": "µL/min/mg",
    "microsomal CLint at 0.5 µM": 5.4
  },
  {
    "mol": "Cc1nc(-c2onc(C)c2Nc2cncc(OC(C)C)n2)ccc1NC(=O)[C@H]1CCCC[C@@H]1C(=O)O",
    "value_unit": "µL/min/mg",
    "microsomal CLint at 0.5 µM": 11
  }
]

----------
experiment: Lipophilicity, logD of compound at pH 7.4 by chromatographic hydrophobicity index method; type: physicochemical; details: buffer
endpoint: chromatographic logD

[
  {
    "mol": "Cc1nc(-c2onc(C)c2NC(=O)O[C@H](C)c2ccccc2Cl)ccc1NC(=O)[C@H]1CCCC[C@@H]1C(=O)O",
    "result_number": 1.76
  },
  {
    "mol": "Cc1cc(NC(=O)[C@H]2CCCC[C@@H]2C(=O)O)c(C)nc1-c1onc(C)c1NC(=O)O[C@H](C)c1ccccc1Cl",
    "result_number": 1.69
  },
  {
    "mol": "Cc1nc(-c2cnn(C)c2NC(=O)O[C@H](C)c2ccccc2Cl)ccc1NC(=O)[C@H]1CCCC[C@@H]1C(=O)O",
    "result_number": 1.12
  },
  {
    "mol": "CCC[C@@H](C)OC(=O)Nc1c(C)noc1-c1ccc(NC(=O)[C@H]2CCCC[C@@H]2C(=O)O)c(C)n1",
    "result_number": 1.36
  },
  {
    "mol": "Cc1noc(-c2ccc(NC(=O)[C@H]3CCCC[C@@H]3C(=O)O)cn2)c1NC(=O)O[C@H](C)c1ccccc1Cl",
    "result_number": 1.52
  },
  {
    "mol": "Cc1nc(-c2onc(C)c2CNC(=O)O[C@H](C)c2ccccc2Cl)ccc1NC(=O)[C@H]1CCCC[C@@H]1C(=O)O",
    "result_number": 1.69
  },
  {
    "mol": "Cc1nc(-c2onc(C)c2Nc2cncc(OC(C)C)n2)ccc1NC(=O)[C@H]1CCCC[C@@H]1C(=O)O",
    "result_number": 0.86
  },
  {
    "mol": "Cc1noc(-c2ccc(NC(=O)[C@H]3CCCC[C@@H]3C(=O)O)cc2)c1NC(=O)O[C@H](C)c1ccccc1Cl",
    "result_number": 1.39
  },
  {
    "mol": "Cc1nc(-c2nnn(C)c2NC(=O)O[C@H](C)c2ccccc2Cl)ccc1NC(=O)[C@H]1CCCC[C@@H]1C(=O)O",
    "result_number": 1.18
  },
  {
    "mol": "Cc1nc(-c2snc(C)c2NC(=O)O[C@H](C)c2ccccc2Cl)ccc1NC(=O)[C@H]1CCCC[C@@H]1C(=O)O",
    "result_number": 1.55
  },
  {
    "mol": "Cc1noc(-c2ccc(NC(=O)[C@H]3CCCC[C@@H]3C(=O)O)c(F)n2)c1NC(=O)O[C@H](C)c1ccccc1Cl",
    "result_number": 1.5
  },
  {
    "mol": "Cc1nc(-c2onc(C)c2NC(=O)O[C@H](C)c2ccccc2)ccc1NC(=O)[C@H]1CCCC[C@@H]1C(=O)O",
    "result_number": 1.27
  }
]
